// pIC50 lookup, one value per entry
- study target: Nitric oxide synthase 3 (Homo sapiens, UniProt P29474)
- Sequence (P29474 whole entry): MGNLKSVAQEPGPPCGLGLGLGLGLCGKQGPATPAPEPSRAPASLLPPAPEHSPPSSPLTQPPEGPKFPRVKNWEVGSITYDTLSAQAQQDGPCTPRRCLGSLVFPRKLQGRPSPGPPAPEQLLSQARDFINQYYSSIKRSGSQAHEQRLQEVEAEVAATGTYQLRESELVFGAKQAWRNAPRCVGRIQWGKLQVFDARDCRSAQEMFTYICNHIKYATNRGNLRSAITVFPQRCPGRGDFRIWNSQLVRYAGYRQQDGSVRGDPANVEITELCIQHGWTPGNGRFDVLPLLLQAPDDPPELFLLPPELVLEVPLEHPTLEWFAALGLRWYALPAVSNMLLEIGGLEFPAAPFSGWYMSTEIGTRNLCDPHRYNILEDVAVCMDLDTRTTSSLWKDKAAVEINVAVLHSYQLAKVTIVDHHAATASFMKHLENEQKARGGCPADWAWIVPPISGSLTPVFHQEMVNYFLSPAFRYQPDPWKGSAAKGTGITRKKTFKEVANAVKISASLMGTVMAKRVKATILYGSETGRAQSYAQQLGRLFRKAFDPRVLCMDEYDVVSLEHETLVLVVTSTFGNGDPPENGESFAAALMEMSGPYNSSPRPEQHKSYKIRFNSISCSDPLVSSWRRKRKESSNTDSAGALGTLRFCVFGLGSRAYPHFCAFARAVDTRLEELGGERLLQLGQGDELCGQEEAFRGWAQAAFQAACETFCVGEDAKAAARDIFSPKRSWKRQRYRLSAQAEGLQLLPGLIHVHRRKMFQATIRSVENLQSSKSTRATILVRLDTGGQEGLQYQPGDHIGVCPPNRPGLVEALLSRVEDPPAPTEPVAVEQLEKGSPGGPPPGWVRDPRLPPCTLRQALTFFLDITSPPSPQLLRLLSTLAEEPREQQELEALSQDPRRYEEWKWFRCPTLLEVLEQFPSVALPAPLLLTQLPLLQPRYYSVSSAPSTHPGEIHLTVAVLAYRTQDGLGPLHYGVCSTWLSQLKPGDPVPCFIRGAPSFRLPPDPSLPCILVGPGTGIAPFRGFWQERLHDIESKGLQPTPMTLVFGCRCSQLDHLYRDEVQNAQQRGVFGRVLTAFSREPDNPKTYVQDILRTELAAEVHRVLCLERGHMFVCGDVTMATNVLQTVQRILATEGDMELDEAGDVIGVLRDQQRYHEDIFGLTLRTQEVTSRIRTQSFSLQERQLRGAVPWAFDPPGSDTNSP
pIC50: −log10 of the molar value.
value kind: pIC50

> print(dat)
                                   compound  numeric.readout
1  CCCC1CC(C)=CC(N)=N1 (stereo unspecified)             6.24
2                        CC1=CC(N)=NCC1(C)C             5.68
3              CC1=CC(N)=N[C@@H]2CCC[C@H]12             6.29
4                            CC1=CC(N)=NCC1             6.64
5             CC1=CC(N)=N[C@@H]2CCCC[C@H]12             5.13
6                            CC1=CCN=C(N)C1             6.36

The values you see were collected from ChEMBL document CHEMBL1136028.
